Please go through the items and note down their cell viability.
Test system: SEM cells
Assay: cell viability relative to DMSO control; higher = less cytotoxic
Details: HPLM + 10% dialyzed FBS; 48 h; 0.0632 µM
Answers are plain numbers, in %.

Dear colleague, could you please provide cell viability for the compounds listed below?
1. CN(C)C1CCN(C(=O)c2ccc(NC(=O)Nc3nc(N4CCOCC4)nc(N4CCOCC4)n3)cc2)CC1
2. CN[C@H]1CCC2=CC(=C(OC)C(=C2C/3=C/C=C(OC)\C(=O)/C=C13)OC)OC
3. Clc1ccc(-c2nc3sccn3c2/C=N/OCc2ccc(Cl)c(Cl)c2)cc1
4. CCN1CCN(CC1)CC(=O)NC2=CC=C(C3=C2C4=C(S3)C=CC=C4)C5=C6O\C(=C/C(=O)C6=CC=C5)N7CCOCC7

(A)
1: 61.7; 2: 24.1; 3: 124; 4: 111

----------
Please go through the items and note down their AUC of viability dose-response curve.
System: NOMO1
Experiment: AUC of viability dose-response curve (% viability x log10 dose units); higher = less sensitive
Conditions: HPLM + 10% dialyzed FBS; 48 h
Give bare numbers.

Consider the reported AUC of viability dose-response curve for these molecules:
Cc1nc2cnc3ccc(C#Cc4cccnc4)cc3c2n1-c1ccc(C(C)(C)C#N)cc1; 264
CCN1CCN(CC1)CC(=O)NC2=CC=C(C3=C2C4=C(S3)C=CC=C4)C5=C6O\C(=C/C(=O)C6=CC=C5)N7CCOCC7; 420

Dear colleague, could you please provide AUC of viability dose-response curve for the molecules listed below?
1. COC(=O)C[C@](O)(CCCC(C)(C)O)C(=O)O[C@@H]1C(OC)=CC23CCCN2CCc2cc4c(cc2[C@H]13)OCO4 (stereo partly drawn)
2. CN(C)[S+](=O)([O-])c1ccc2c(c1)C(=Cc1cc3c([nH]1)CCCC3)C(=O)N2
3. CN[C@@H](C)[C@H]1[C@H](O)C[C@@]2(C)[C@@H]3CC[C@H]4C(C)(C)[C@@H](NC)CC[C@@]45C[C@@]35CC[C@]12C

(A)
458
467
445

Dear colleague, could you please provide AUC of viability dose-response curve for the molecules listed below?
1. O=C(O)Cn1nnc(-c2cc(N3CCC(Oc4cc(F)ccc4Br)CC3)no2)n1
2. ClC1=CC=C(C=C1)C(C#N)C2=C(Cl)C=C(C=C2Cl)N3\N=C/C(=O)NC3=O (stereo not drawn)
3. COc1cc(OC2CCN(C)CC2)ccc1Nc1ncc2c(n1)n(C1CCCC1)c(=O)n2C

(A)
[357, 453, 427]

----------
Test system: SEM cells
Test: cell viability relative to DMSO control; higher = less cytotoxic
Conditions: HPLM + 10% dialyzed FBS; 48 h; 0.569 µM
endpoint.label: cell viability (%)
Give bare numbers, in %.

Consider the reported cell viability for these compounds:
CCOC(=O)N1CCN(/[N+]([O-])=N/Oc2ccc([N+](=O)[O-])cc2C#N)CC1; 109
COc1cc(F)c(F)c(Nc2ccc(I)cc2F)c1N[S+](=O)([O-])C1(C[C@H](O)CO)CC1; 105
CN(C)[S+](=O)([O-])c1ccc2c(c1)C(=Cc1cc3c([nH]1)CCCC3)C(=O)N2; 130
CCC[S+]([O-])c1ccc2[nH]c(NC(=O)OC)nc2c1 (stereo unspecified); 83.1
CCOC(=O)[C@@H](N)Cc1ccc(-c2cc(O[C@H](c3ccc(Cl)cc3-n3ccc(C)n3)C(F)(F)F)nc(N)n2)cc1.O=C(O)CNC(=O)c1ccccc1; 126

Here is another compound to look at.
What the record says about `CN[C@H]1CCC2=CC(=C(OC)C(=C2C/3=C/C=C(OC)\C(=O)/C=C13)OC)OC` : cell viability is 23.3

----------
System: P12-Ichikawa
Test: cell viability relative to DMSO control; higher = less cytotoxic
Conditions: HPLM + 10% dialyzed FBS; 48 h; 0.000781 µM
endpoint.label: cell viability (%)
Answers are plain numbers, in %.

Dear colleague, could you please provide cell viability for the compounds listed below?
1. C[C@]12CC[C@@H]3c4ccc(O)cc4CC[C@H]3[C@@H]1[C@@H](O)[C@@H](O)[C@@H]2O
2. O=C1[C@H](Cc2ccc(O)cc2)N2C(=O)CCN(C(=O)NCc3ccccc3)[C@H]2CN1Cc1cccc2ccccc12

(A)
[119, 86.7]

----------
Please go through the items and note down their cell viability.
System: SEM cells
Assay: cell viability relative to DMSO control; higher = less cytotoxic
Conditions: HPLM + 10% dialyzed FBS; 48 h; 0.0632 µM
Answers are plain numbers, in %.

C[N]1C=C(C=N1)C2=C3\C=N/NC(=O)C4=C3C(=CC(=C4)NC(=O)[C@H](N)C5CCCCC5)[NH]2; 79

Dear colleague, could you please provide cell viability for the compounds listed below?
1. N[S+]([O-])(=O)C1=CC=C(NC/2=C/C(=O)C3=CC=CC=C3C2=O)C=C1
2. Cc1onc(-c2ccccc2Cl)c1C(=O)N[C@@H]1C(=O)N2[C@@H]1SC(C)(C)[C@@H]2C(=O)[O-]
3. CCN(CC)CCOc1ccc(/C(=C(\Cl)c2ccccc2)c2ccccc2)cc1
4. CCC[S+]([O-])c1ccc2[nH]c(NC(=O)OC)nc2c1 (centres undefined)
5. CNC(=O)c1c(-c2ccc(F)cc2)oc2cc(N(CCO)[S+](C)(=O)[O-])c(C3CC3)cc12
6. CC(C)CNc1ccnc(NCc2csc(-c3ccccc3)n2)n1
7. CC[S+](=O)([O-])c1cccc(-c2cc(C(=O)NC3CCN(C)CC3)c(C)c3[nH]c4ncc(C)cc4c23)c1
8. Cc1cnn(C)c1C(=O)Nc1cc(Nc2ccc3c(/C=C/c4ccccn4)n[nH]c3c2)ccc1F

(A)
115
72
118
100
71.9
121
124
110

----------
Test system: SEM cells
Assay: cell viability relative to DMSO control; higher = less cytotoxic
Details: RPMI 5 mM glucose + 10% FBS; 48 h; 0.00702 µM
endpoint.label: cell viability (%)
Give bare numbers, in %.

Consider the reported cell viability for these compounds:
O=C(c1ccc(F)cc1)N1CCC[C@H](c2nc(-c3ccc(F)cc3)no2)C1; 124
COC(=O)C[C@](O)(CCCC(C)(C)O)C(=O)O[C@@H]1C(OC)=CC23CCCN2CCc2cc4c(cc2[C@H]13)OCO4 (stereo partly drawn); 106
N[S+]([O-])(=O)C1=CC=C(NC/2=C/C(=O)C3=CC=CC=C3C2=O)C=C1; 99.4

Dear colleague, could you please provide cell viability for the compounds listed below?
1. O=C(O)CCC1CCC(c2cc(F)ccc2F)([S+](=O)([O-])c2ccc(Cl)cc2)CC1 (stereo not drawn)
2. CN[C@H]1CCC2=CC(=C(OC)C(=C2C/3=C/C=C(OC)\C(=O)/C=C13)OC)OC
3. COc1ccc([S+](=O)([O-])N(C(C)=O)c2ccccc2/C=C/c2cc[n+]([O-])cc2)cc1
4. CNC(=O)c1c(-c2ccc(F)cc2)oc2cc(N(CCO)[S+](C)(=O)[O-])c(C3CC3)cc12
5. C[C@]12CCC(=O)C=C1CC[C@@H]1[C@@H]2[C@@H](O)C[C@@]2(C)[C@H]1CC[C@]2(O)C(=O)CO
6. CCN(CC)CCOc1ccc(/C(=C(\Cl)c2ccccc2)c2ccccc2)cc1
7. O=C1[C@H](Cc2ccc(O)cc2)N2C(=O)CCN(C(=O)NCc3ccccc3)[C@H]2CN1Cc1cccc2ccccc12

(A)
[117, 85, 115, 77.3, 99.3, 115, 99.7]

----------
Test system: P12-Ichikawa
Experiment: cell viability relative to DMSO control; higher = less cytotoxic
Conditions: RPMI 5 mM glucose + 10% dialyzed FBS; 48 h; 15.4 µM
Hi! Could you tag entries with cell viability below 90% as yes, and those at or above as no? Much appreciated.

(Q) Does this compound meet the criterion cell viability < 90%? `CCOC(=O)[C@@H](N)Cc1ccc(-c2cc(O[C@H](c3ccc(Cl)cc3-n3ccc(C)n3)C(F)(F)F)nc(N)n2)cc1.O=C(O)CNC(=O)c1ccccc1`
(A) no

(Q) Does this compound meet the criterion cell viability < 90%? `S=C(NCc1ccc2c(c1)OCO2)N1CCN(c2ncnc3c2oc2ccccc23)CC1`
(A) yes

(Q) Does this compound meet the criterion cell viability < 90%? `C[C@]12CC[C@H]3[C@@H](CC[C@H]4NC(=O)\C=C/[C@]34C)[C@@H]1CC[C@@H]2C(=O)NC5=CC(=CC=C5C(F)(F)F)C(F)(F)F`
(A) no

(Q) Does this compound meet the criterion cell viability < 90%? `c1ccc(CCCN2CCN(CCOC(c3ccccc3)c3ccccc3)CC2)cc1`
(A) yes

(Q) Does this compound meet the criterion cell viability < 90%? `OC[C@@H](O)[C@@H](O)[C@H](O)[C@@H](O)CO`
(A) no

(Q) Does this compound meet the criterion cell viability < 90%? `CN(C)C1CCN(C(=O)c2ccc(NC(=O)Nc3nc(N4CCOCC4)nc(N4CCOCC4)n3)cc2)CC1`
(A) yes

(Q) Does this compound meet the criterion cell viability < 90%? `Cc1onc(-c2ccccc2Cl)c1C(=O)N[C@@H]1C(=O)N2[C@@H]1SC(C)(C)[C@@H]2C(=O)[O-]`
(A) no

(Q) Does this compound meet the criterion cell viability < 90%? `CC[C@H](/C=C/[C@@H](C)[C@H]1CC[C@H]2[C@@H]3CC=C4C[C@@H](O)CC[C@]4(C)[C@H]3CC[C@]12C)C(C)C`
(A) yes
